- System: FLAGELLIN-SENSING 2 (FLS2) (Arabidopsis thaliana)
- Sequence (Q9FL28 24-804): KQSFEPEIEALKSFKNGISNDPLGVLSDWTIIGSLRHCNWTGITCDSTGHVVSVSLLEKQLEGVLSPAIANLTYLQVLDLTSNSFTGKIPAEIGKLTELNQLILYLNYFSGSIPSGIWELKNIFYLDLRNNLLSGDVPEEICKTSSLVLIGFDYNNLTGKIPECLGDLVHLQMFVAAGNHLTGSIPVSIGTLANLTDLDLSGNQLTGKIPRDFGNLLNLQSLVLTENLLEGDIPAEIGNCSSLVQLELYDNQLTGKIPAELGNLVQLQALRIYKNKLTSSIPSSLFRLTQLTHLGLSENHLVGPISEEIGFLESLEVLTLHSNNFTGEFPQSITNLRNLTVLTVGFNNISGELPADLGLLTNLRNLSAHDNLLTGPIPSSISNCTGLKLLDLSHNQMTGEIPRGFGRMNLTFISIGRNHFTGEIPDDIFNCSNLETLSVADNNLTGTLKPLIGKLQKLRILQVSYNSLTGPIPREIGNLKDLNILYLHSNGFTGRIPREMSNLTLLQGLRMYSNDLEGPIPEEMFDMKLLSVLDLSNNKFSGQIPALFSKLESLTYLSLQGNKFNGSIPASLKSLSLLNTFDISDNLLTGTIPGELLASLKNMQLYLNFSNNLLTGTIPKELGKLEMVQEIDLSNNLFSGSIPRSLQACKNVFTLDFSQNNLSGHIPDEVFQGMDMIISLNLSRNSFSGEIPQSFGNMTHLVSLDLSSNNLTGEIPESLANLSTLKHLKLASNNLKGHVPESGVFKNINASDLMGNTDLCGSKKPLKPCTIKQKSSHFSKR
Property measured: pKd
The read-out pKd is expressed as -log10 of concentration in moles per litre.

Query :: Form field: reported pKd of "C=C(C)COc1ccc2c(C)c(CC(=O)N3CCN(CC(=O)NCCN(C)C)CC3)c(=O)oc2c1C"
Result :: 4.03
